- System: SC27B
- assay: qHTS profiling for inhibitors of Plasmodium falciparum proliferation (AID 504749); also: nearly all actives have a fitted effect of over 60% in size
- recordedConditions: P. falciparum in erythrocytes, SYBR Green DNA, 72 h; series mostly up to 28.7 µM
Records with an inconclusive call do not appear. Calls of active or inactive are those of the source. Calls follow the shape of the dose curve; as a rule, active = well fitted inhibition curve with a large enough effect; inconclusive = small, poorly fitted or top-dose-only effect; inactive = flat fitted curve, though single readings scatter.
Give your call using only these classes: TRUE = active, FALSE = inactive

What outcome does the record of this test show for `O=C(Nc1ccc(O)cc1)c1ccccc1O` ?
FALSE

What outcome does the record of this test show for `CCCC(=O)O` ?
FALSE

What outcome does the record of this test show for `COC(=O)[C@@H](N)CS` ?
FALSE

What outcome does the record of this test show for `CC(C)(CO)[C@@H](O)C(=O)NCCC(=O)NCCSSCCNC(=O)CCNC(=O)[C@H](O)C(C)(C)CO` ?
FALSE

What outcome does the record of this test show for `CN(C)c1ccc(C(=C2C=CC(=[N+](C)C)C=C2)c2c(O)c(S(=O)(=O)[O-])cc3cc(S(=O)(=O)O)ccc23)cc1` ?
FALSE

What outcome does the record of this test show for `CCCOC(=O)c1ccccc1O` ?
FALSE

What outcome does the record of this test show for O=C(NCCNCC(O)COc1ccc(O)cc1)N1CCOCC1 (stereo not drawn) ?
FALSE

What outcome does the record of this test show for `[O-][N+](=Nc1ccccc1)c1ccccc1` ?
FALSE

What outcome does the record of this test show for `NC(N)=O` ?
FALSE

What outcome does the record of this test show for `CNC(=O)OCc1cccc(COC(=O)NC)n1` ?
FALSE

What outcome does the record of this test show for `COC(=O)CC[C@H](N)C(=O)O` ?
FALSE

What outcome does the record of this test show for `O=C(O)C1=C(CSc2nnnn2CS(=O)(=O)O)CS[C@@H]2[C@H](NC(=O)[C@H](O)c3ccccc3)C(=O)N12` ?
FALSE

What outcome does the record of this test show for `NC(=O)C1c2ccccc2CCc2ccccc21` ?
FALSE

What outcome does the record of this test show for CC(=O)N[C@@H]1C(O[C@H]2O[C@H](C(=O)O)C(O)[C@H](O)[C@H]2O)[C@H](O)[C@@H](CO)O[C@H]1O[C@@H]1C(C(=O)O)O[C@@H](O[C@H]2[C@H](O)[C@@H](CO)OC(O)[C@@H]2NC(C)=O)[C@H](O)[C@H]1O (stereo partly drawn) ?
FALSE

What outcome does the record of this test show for `CN=C1C=CC(=C(c2ccc(N(C)C)cc2)c2ccc(N(C)C)cc2)C=C1` ?
TRUE

What outcome does the record of this test show for `CCCCCCCCCC(=O)NO` ?
FALSE

What outcome does the record of this test show for COc1cc(S(C)=O)ccc1-c1nc2ncccc2[nH]1 (stereo not drawn) ?
FALSE

What outcome does the record of this test show for O=C(OC1C[C@@H]2CC3C[C@H](C1)N2CC3=O)c1c[nH]c2ccccc12 (stereo partly drawn) ?
FALSE

What outcome does the record of this test show for C=C1C(CCl)(CCl)C2(Cl)C(Cl)C(Cl)C1(Cl)C2(Cl)Cl (stereo not drawn) ?
TRUE

What outcome does the record of this test show for `COc1cc(C)c(/C=C/C(C)=C/C=C/C(C)=C/C(=O)O)c(C)c1C` ?
FALSE

What outcome does the record of this test show for CCOC(=O)C1=C(COCCN)NC(C)=C(C(=O)OC)C1c1ccccc1Cl (stereo not drawn) ?
FALSE

What outcome does the record of this test show for `OCC(O)CO` ?
FALSE

What outcome does the record of this test show for `O=[n+]1ccn([O-])c2ccccc21` ?
FALSE

The measured values listed here are drawn from PubChem BioAssay (NCATS).
